- SUBJECT OF TEST: Melanocortin receptor 3 (Homo sapiens)
- Sequence (P41968 whole entry): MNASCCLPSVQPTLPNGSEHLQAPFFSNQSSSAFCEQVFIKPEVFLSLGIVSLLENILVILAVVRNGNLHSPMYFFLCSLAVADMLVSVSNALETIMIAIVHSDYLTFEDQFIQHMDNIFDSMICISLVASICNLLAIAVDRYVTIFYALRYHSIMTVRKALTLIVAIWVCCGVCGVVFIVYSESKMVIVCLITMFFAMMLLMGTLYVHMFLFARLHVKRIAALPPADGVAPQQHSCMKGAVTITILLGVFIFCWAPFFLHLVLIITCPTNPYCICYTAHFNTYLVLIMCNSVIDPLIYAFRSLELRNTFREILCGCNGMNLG
- ASSAY OVERVIEW: Agonist activity at human MC3 receptor expressed in HEK293 cells
pEC50: −log10 of the molar value.
ENDPOINT: pEC50

// below: answered molecules
>>> test_value("N=C(N)NCCC[C@H](CC1CCCCC1)NC(=O)[C@H](N)Cc1ccc(F)cc1")
"< 4.82"
>>> test_value("NC(N)=NCCC[C@@H](CN1CCCCC1)NC(=O)[C@H](N)Cc1ccc(F)cc1")
"< 4.00"
>>> test_value("N=C(N)NCCC[C@H](NC(=O)[C@H](N)Cc1ccc(F)cc1)C(=O)N1CCCCC1")
"< 4.60"

Requested read-out: pEC50. Entry: N[C@H](Cc1ccc(F)cc1)C(=O)NCCC(Cn1cncn1)C1CCCCC1 (stereo partly specified)
< 4.30

Cool, now N[C@H](Cc1ccc(Cl)cc1)C(=O)N1CCC(Cn2cncn2)(C2CCCCC2)CC1
6.64

Next molecule: NC(N)=NCCC[C@H](Cc1ccccc1)NC(=O)[C@H](N)Cc1ccc(F)cc1
< 4.00

###

- SUBJECT OF TEST: Melanocortin receptor 4 (Homo sapiens, UniProt P32245)
- Sequence (P32245 whole entry): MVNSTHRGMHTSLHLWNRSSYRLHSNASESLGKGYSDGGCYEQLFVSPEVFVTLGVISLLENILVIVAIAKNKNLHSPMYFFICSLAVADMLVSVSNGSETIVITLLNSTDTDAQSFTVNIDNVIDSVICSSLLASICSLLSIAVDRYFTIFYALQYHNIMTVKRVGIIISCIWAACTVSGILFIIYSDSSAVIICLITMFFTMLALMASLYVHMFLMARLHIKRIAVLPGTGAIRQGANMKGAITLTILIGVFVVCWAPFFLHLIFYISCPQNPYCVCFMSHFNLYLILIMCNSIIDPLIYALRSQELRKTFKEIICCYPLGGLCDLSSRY
- ASSAY OVERVIEW: Agonist activity at human MC4 receptor expressed in HEK293 cells
ENDPOINT: EC50

>>> test_value("N=C(N)NCCC[C@H](NC(=O)[C@H](N)Cc1ccc(F)cc1)C(=O)N1CCCCC1")
"> 50 µM"

Which value of EC50 has been reported for NC(N)=NCCC[C@@H](CN1CCCCC1)NC(=O)[C@H](N)Cc1ccc(F)cc1 in the records?
> 100 µM

Next: N=C(N)NCCC[C@H](CC1CCCCC1)NC(=O)[C@H](N)Cc1ccc(F)cc1
> 50 µM

N[C@H](Cc1ccc(Cl)cc1)C(=O)N1CCC(Cn2cncn2)(C2CCCCC2)CC1 , same question.
0.016 µM

// next record NC(N)=NCCC[C@H](Cc1ccccc1)NC(=O)[C@H](N)Cc1ccc(F)cc1
> 100 µM

Likewise for N[C@H](Cc1ccc(F)cc1)C(=O)NCCC(Cn1cncn1)C1CCCCC1 (stereo partly specified) ?
> 25 µM

###

- SUBJECT OF TEST: Melanocyte-stimulating hormone receptor (Homo sapiens)
- Sequence (Q01726 whole entry): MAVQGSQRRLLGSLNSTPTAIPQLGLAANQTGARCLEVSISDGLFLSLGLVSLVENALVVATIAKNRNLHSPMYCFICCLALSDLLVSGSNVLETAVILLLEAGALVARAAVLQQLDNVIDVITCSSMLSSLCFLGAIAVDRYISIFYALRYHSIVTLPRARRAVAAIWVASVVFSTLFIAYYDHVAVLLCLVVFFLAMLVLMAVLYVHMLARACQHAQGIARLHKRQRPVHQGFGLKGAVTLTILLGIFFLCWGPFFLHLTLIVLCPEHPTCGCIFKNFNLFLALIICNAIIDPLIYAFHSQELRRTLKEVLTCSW
- ASSAY OVERVIEW: Agonist activity at human MC1 receptor expressed in HEK293 cells
# Lookup of reported EC50 keyed by entry

Use the examples below as a reference point.
>>> test_value("NC(N)=NCCC[C@@H](CN1CCCCC1)NC(=O)[C@H](N)Cc1ccc(F)cc1")
"> 50 µM"
>>> test_value("N[C@H](Cc1ccc(F)cc1)C(=O)NCCC(Cn1cncn1)C1CCCCC1 (stereo not given in full)")
"> 25 µM"
>>> test_value("N=C(N)NCCC[C@H](NC(=O)[C@H](N)Cc1ccc(F)cc1)C(=O)N1CCCCC1")
"> 50 µM"
>>> test_value("N[C@H](Cc1ccc(Cl)cc1)C(=O)N1CCC(Cn2cncn2)(C2CCCCC2)CC1")
"2 µM"

Let's switch to this compound now.
Looking for the measured EC50 of N=C(N)NCCC[C@H](CC1CCCCC1)NC(=O)[C@H](N)Cc1ccc(F)cc1 , can you help?
> 25 µM

###

- SUBJECT OF TEST: UniProt:P41968
ENDPOINT: Ki

Record request: Ki value, item N=C(N)NCCC[C@H](NC(=O)[C@H](N)Cc1ccc(F)cc1)C(=O)N1CCCCC1
> 100 µM
